Tested on: Phosphatidylinositol 4,5-bisphosphate 3-kinase catalytic subunit gamma isoform (Homo sapiens)
Sequence (P48736 whole entry, canonical isoform): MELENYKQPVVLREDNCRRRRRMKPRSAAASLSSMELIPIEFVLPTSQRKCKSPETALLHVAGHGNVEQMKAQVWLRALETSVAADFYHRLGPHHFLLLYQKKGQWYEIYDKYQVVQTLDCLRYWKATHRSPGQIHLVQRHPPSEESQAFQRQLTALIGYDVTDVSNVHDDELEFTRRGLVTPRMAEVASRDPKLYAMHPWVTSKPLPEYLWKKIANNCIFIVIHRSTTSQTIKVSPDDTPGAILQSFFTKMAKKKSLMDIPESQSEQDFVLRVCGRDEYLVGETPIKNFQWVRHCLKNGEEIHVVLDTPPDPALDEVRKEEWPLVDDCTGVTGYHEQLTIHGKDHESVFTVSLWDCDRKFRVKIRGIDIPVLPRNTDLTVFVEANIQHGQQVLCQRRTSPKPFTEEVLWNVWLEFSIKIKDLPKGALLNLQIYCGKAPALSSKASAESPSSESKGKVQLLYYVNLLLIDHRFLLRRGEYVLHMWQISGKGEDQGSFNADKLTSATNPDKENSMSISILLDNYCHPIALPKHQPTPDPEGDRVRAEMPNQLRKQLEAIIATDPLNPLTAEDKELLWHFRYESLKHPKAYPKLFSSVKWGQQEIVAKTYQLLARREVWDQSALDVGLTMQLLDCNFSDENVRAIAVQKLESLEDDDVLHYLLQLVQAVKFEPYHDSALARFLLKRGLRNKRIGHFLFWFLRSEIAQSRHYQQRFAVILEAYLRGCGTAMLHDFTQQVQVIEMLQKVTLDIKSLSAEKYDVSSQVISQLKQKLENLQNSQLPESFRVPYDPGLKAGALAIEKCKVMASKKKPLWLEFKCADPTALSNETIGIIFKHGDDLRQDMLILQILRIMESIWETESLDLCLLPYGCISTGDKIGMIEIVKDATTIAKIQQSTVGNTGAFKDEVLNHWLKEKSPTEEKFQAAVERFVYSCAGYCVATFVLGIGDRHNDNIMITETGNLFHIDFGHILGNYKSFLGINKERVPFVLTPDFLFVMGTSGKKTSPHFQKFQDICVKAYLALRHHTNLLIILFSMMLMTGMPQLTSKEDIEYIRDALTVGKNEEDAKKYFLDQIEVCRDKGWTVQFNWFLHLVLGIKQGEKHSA
Protocol summary: Inhibition of recombinant human C-terminal His6-tagged p110gamma expressed in insect cells using phosphatidylinositol as substrate in presence of gamma-32P-ATP after 5 mins by thin layer chromatographic method
Task for the reader: assign each of the following compounds its reported IC50.

Form field: reported IC50 of Cc1cccc2cc([C@H](C)Nc3ncnc4[nH]cnc34)n(C(C)C)c(=O)c12
< 0.1 µM

Form field: reported IC50 of Cc1ccccc1-n1c(Cn2nc(Cl)c3c(N)ncnc32)cc2cccc(C)c2c1=O
< 1 µM

Form field: reported IC50 of C=Cc1nn(Cc2cc3cccc(C)c3c(=O)n2-c2ccccc2F)c2ncnc(N)c12
< 10 µM

Form field: reported IC50 of Cc1cccc2cc(Cn3nc(I)c4c(N)ncnc43)n(-c3ccccc3Cl)c(=O)c12
< 1 µM

Form field: reported IC50 of Cc1ccccc1-n1c(Cn2nc(CN3CCOCC3)c3c(N)ncnc32)cc2cccc(C)c2c1=O
> 10 µM

Form field: reported IC50 of CC(=O)Nc1nc2cc(-c3nn(Cc4cc5cccc(C)c5c(=O)n4-c4ccccc4)c4ncnc(N)c34)ccc2o1
< 0.1 µM

Form field: reported IC50 of Cc1cccc2cc(Cn3nc(-c4ccc(F)c(O)c4)c4c(N)ncnc43)n(-c3ccccc3F)c(=O)c12
< 1 µM

Form field: reported IC50 of Cc1cccc2cc([C@H](C)Nc3ncnc4[nH]cc(C(N)=O)c34)n(-c3ccccc3)c(=O)c12
< 0.1 µM

Form field: reported IC50 of Cc1ccccc1-n1c(Cn2nc(-c3cccc(O)c3)c3c(N)ncnc32)cc2ccccc2c1=O
< 1 µM

Form field: reported IC50 of Cc1ccccc1-n1c(Cn2nc(-c3cnn(C)c3)c3c(N)ncnc32)cc2cccc(C)c2c1=O
< 1 µM

Form field: reported IC50 of Cc1cccc2cc([C@H](C)Nc3nc(F)nc4[nH]cnc34)n(-c3ccccc3)c(=O)c12
< 0.1 µM

Form field: reported IC50 of Cc1ccccc1-n1c(Cn2nc(I)c3c(N)ncnc32)cc2cccc(C)c2c1=O
0.1 to 1 µM

Form field: reported IC50 of Cc1cccc2cc(Cn3nc(Cl)c4c(N)ncnc43)n(-c3ccccc3F)c(=O)c12
< 10 µM

Form field: reported IC50 of COc1cc(F)cc(-c2nn(Cc3cc4cccc(C)c4c(=O)n3-c3ccccc3C)c3ncnc(N)c23)c1
< 10 µM

Form field: reported IC50 of CCc1ccccc1-n1c(Cn2nc(C#C[C@@H](C)O)c3c(N)ncnc32)cc2cccc(C)c2c1=O
< 1 µM

Form field: reported IC50 of Cc1cccc2cc(Cn3nc(I)c4c(N)ncnc43)n(C(C)C)c(=O)c12
> 10 µM

Form field: reported IC50 of Cc1cccc2cc(Cn3nc(C#CC4CC4)c4c(N)ncnc43)n(-c3ccccc3F)c(=O)c12
> 10 µM

Form field: reported IC50 of Cc1cccnc1-n1c(Cn2nc(Cl)c3c(N)ncnc32)cc2cccc(C)c2c1=O
> 10 µM
